# systemTested: wt human JAK1, catalytic site (Homo sapiens)
# Construct: wt human JAK1, catalytic site
# Sequence (P23458 875-1153 limits assumed): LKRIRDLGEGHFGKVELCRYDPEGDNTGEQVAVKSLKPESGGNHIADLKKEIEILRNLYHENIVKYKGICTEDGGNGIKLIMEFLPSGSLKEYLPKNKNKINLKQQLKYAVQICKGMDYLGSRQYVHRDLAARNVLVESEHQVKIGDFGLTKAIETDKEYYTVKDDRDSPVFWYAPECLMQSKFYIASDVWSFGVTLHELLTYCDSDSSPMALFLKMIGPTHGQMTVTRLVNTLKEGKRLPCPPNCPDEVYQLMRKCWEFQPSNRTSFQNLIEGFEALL
# methodNotes: HTRF KinEASE assay, JAK1
# conditionNotes: 2.5 μM ATP; read-out: IC50, Activity Toward JAK1
pIC50: −log10 of the molar value.
Measured pIC50, listed per entry.

Would you please look over these solved cases?
compound	observable	result
Cn1cncc1-c1ccc(Nc2cn(-c3c(Cl)cccc3Cl)nc2C(N)=O)cc1 [compound 204]	pIC50	6.00 to 7.00
Cn1cc(Nc2cn(-c3c(Cl)cccc3Cl)nc2C(N)=O)nn1 [compound 380]	pIC50	6.00 to 7.00
NC(=O)c1nn(-c2c(Cl)cccc2Cl)cc1Nc1ccc(-c2ccnnc2)nc1 [compound 352]	pIC50	6.00 to 7.00
CCn1ncnc1-c1ccc(Nc2cn(-c3c(Cl)cccc3Cl)nc2C(N)=O)cc1 [compound 47]	pIC50	6.00 to 7.00
NC(=O)c1nn(-c2c(Cl)cccc2Cl)nc1Nc1ccc(C(=O)N2CCCC2)cn1 [compound 137]	pIC50	7.00 to 8.00

Attention now shifts to the item below.
Observed pIC50 on wt human JAK1, catalytic site (Homo sapiens) for Cn1cc(C(F)(F)F)nc1-c1ccc(Nc2nn(-c3c(Cl)cccc3Cl)nc2C(N)=O)nc1 [compound 144] , please. 7.00 to 8.00

The measurements presented in this section are drawn from patent US20230373985A1.
